Measured values drawn from patent US10017713B2 for this set.

Experiment: Surfactant solubility in hydrofluoroether (HFE) solvents by visual clarity
Type: physicochemical
Conditions: Novec 7200, room temperature (23° C.)
Description: A series of C4F9SO2N-based fluorochemical surfactants were examined to determine their solubility in various hydrofluoro ether (HFE) solvents, including four segregated HFEs (Novec 7100, 7200, 7300, and 7500 available from 3M Company, St Paul, Minn.), one non-segregated HFE (PF-7600 available from 3M Company), and one HFE-Alcohol blend (Novec 71IPA available from 3M Company). […]
# Max. Solubility annotations
API: value field is a number in wt %; no unit string.

compound	unitSymbol	quantitativeReadout
O=S(=O)(N(CCO)CCO)C(F)(F)C(F)(F)C(F)(F)C(F)(F)F [FBSEE (IX), C4F9SO2N(CH2CH2OH)2]	wt %	0.04
O=S(=O)(N(CCO)CCOCCO)C(F)(F)C(F)(F)C(F)(F)C(F)(F)F [FBSE(EE) (V), C4F9SO2N(CH2CH2OCH2CH2OH) (CH2CH2OH)]	wt %	0.8

Name the reported Max. Solubility value associated with the compound O=S(=O)(NCCO)C(F)(F)C(F)(F)C(F)(F)C(F)(F)F [H-FBSE (X), C4F9SO2NH(CH2CH2OH)] 0.16

====

# Max. Solubility annotations
Assay: Surfactant solubility in hydrofluoroether (HFE) solvents by visual clarity
Format: physicochemical
Settings: PF-7600, room temperature (23° C.)
From the text: A series of C4F9SO2N-based fluorochemical surfactants were examined to determine their solubility in various hydrofluoro ether (HFE) solvents, including four segregated HFEs (Novec 7100, 7200, 7300, and 7500 available from 3M Company, St Paul, Minn.), one non-segregated HFE (PF-7600 available from 3M Company), and one HFE-Alcohol blend (Novec 71IPA available from 3M Company). […]
API: value field is a number in wt %; no unit string.

smilesRepr	unitSymbol	Max. Solubility
O=S(=O)(NCCO)C(F)(F)C(F)(F)C(F)(F)C(F)(F)F	wt %	1.5

Name the reported Max. Solubility value associated with the compound O=S(=O)(N(CCO)CCO)C(F)(F)C(F)(F)C(F)(F)C(F)(F)F 0.6

====

# Max. Solubility annotations
experiment: Surfactant solubility in hydrofluoroether (HFE) solvents by visual clarity; type: physicochemical; conditions: Novec 7100, room temperature (23° C.)
API: value field is a number in wt %; no unit string.

Example results:
molecule	unitSymbol	Max. Solubility
O=S(=O)(N(CCO)CCO)C(F)(F)C(F)(F)C(F)(F)C(F)(F)F [FBSEE (IX), C4F9SO2N(CH2CH2OH)2]	wt %	0.06
CC(O)CN(CCO)S(=O)(=O)C(F)(F)C(F)(F)C(F)(F)C(F)(F)F (stereo not drawn) [FBSEP (VIII), C4F9SO2N(CH2CH2OH)CH2CH(CH3)OH]	wt %	4.0
O=S(=O)(N(CCO)CCOCCO)C(F)(F)C(F)(F)C(F)(F)C(F)(F)F [FBSE(EE) (V), C4F9SO2N(CH2CH2OCH2CH2OH) (CH2CH2OH)]	wt %	1.5

From here, focus on the item given below.
Name the reported Max. Solubility value associated with the molecule O=S(=O)(NCCO)C(F)(F)C(F)(F)C(F)(F)C(F)(F)F [H-FBSE (X), C4F9SO2NH(CH2CH2OH)] 0.21
